Where do the numbers come from? From PubChem BioAssay AID248.

Test system: L1210 leukemia ip in BDF1 mice, survival T/C
Test: NCI In Vivo Anticancer Drug Screen. Data for tumor model L1210 Leukemia (intraperitoneal) in B6D2F1 (BDF1) mice
Conditions: endpoint: mean survival time; dose: 400.0 mg/kg/injection; schedule: Q04DX003 (ip); vehicle: other; higher = longer survival
Toxic doses and inconclusive results are not listed.

>  <compound>
CC(=O)Oc1cc2c(cc1OC(C)=O)C(Br)CCCC2=O (stereo unspecified)

>  <T/C>
104 % of control

$$$$
>  <compound>
CCOC(=O)c1c(C)c(Br)c(O)c(Br)c1O

>  <T/C>
106 % of control

$$$$
>  <compound>
CCC(CO)NC(=O)/C=C/c1cccc(Br)c1 (stereo unspecified)

>  <T/C>
96 % of control

$$$$
>  <compound>
CS(=O)(=O)N(CC(=O)O)Cc1cccnc1

>  <T/C>
95 % of control

$$$$
>  <compound>
Cn1cnc2c1c(=N)ncn2O

>  <T/C>
113 % of control

$$$$
>  <compound>
CCOc1ccccc1C(N)=O

>  <T/C>
105 % of control

$$$$

###

Test system: L1210 leukemia ip in BDF1 mice, survival T/C
Assay: NCI In Vivo Anticancer Drug Screen. Data for tumor model L1210 Leukemia (intraperitoneal) in B6D2F1 (BDF1) mice
Settings: endpoint: mean survival time; dose: 100.0 mg/kg/injection; schedule: Q01DX009 (ip); vehicle: Klucel (hydroxypropylcellulose) (HPC); higher = longer survival
Toxic doses and inconclusive results are not listed.
Listing of recorded T/C by entry.
property: T/C

>  <molecule>
CSc1cccc(NC(=S)NC(=O)c2ccccc2)c1

>  <reported_value>
91 % of control

$$$$
>  <molecule>
CCCCCC(OCC)(OCC)OCC

>  <reported_value>
95 % of control

$$$$
>  <molecule>
S=c1[nH][nH]c(=S)s1

>  <reported_value>
101 % of control

$$$$
>  <molecule>
COc1ccc(C(CC(=O)c2ccccc2)Sc2ccccc2N)cc1OC (stereo not drawn)

>  <reported_value>
94 % of control

$$$$
>  <molecule>
ClCCN(CCN(CCCl)c1ccccc1)c1ccccc1

>  <reported_value>
113 % of control

$$$$
>  <molecule>
CC1(C)N=C(c2ccccc2)C(c2ccccc2)=N1

>  <reported_value>
105 % of control

$$$$
>  <molecule>
O=c1[nH]/c(=C\c2ccc3c(c2)OCO3)c(=O)[nH]/c1=C\c1ccc2c(c1)OCO2

>  <reported_value>
94 % of control

$$$$
>  <molecule>
NC(=O)Nc1ccccc1

>  <reported_value>
103 % of control

$$$$
>  <molecule>
C=CCc1ccc(OC(=O)Nc2ccccc2C)c(OC)c1

>  <reported_value>
96 % of control

$$$$
>  <molecule>
CCOC(=O)CN1CCC(C2(c3cc4ccccc4[nH]3)OCCO2)CC1

>  <reported_value>
97 % of control

$$$$
>  <molecule>
NC(=O)N/N=C1\CCCC(OC(=O)c2ccccc2)CC1 (stereo not drawn)

>  <reported_value>
97 % of control

$$$$
>  <molecule>
CC1CCCC(C)N1C(=O)Nc1cccc(F)c1 (stereo not drawn)

>  <reported_value>
99 % of control

$$$$
>  <molecule>
COC(=O)C(N=Nc1ccc(C)cc1)C(C)=O (stereo not drawn)

>  <reported_value>
89 % of control

$$$$
